- Experiment notes: Maximally tolerated dose of APO866 in mice
- Test context: mouse, in vivo, intraperitoneal; twice a day; Balb/c nude mice; data not shown
Measured quantity: MTD (mg/kg)

Structure	Unit string	Observed result
O=C(/C=C/c1cccnc1)NCCCCC1CCN(C(=O)c2ccccc2)CC1	mg/kg	15
